target.or.test.system: porcine trehalase (Sus scrofa, UniProt I3LIR5)
Sequence (I3LIR5 24-556): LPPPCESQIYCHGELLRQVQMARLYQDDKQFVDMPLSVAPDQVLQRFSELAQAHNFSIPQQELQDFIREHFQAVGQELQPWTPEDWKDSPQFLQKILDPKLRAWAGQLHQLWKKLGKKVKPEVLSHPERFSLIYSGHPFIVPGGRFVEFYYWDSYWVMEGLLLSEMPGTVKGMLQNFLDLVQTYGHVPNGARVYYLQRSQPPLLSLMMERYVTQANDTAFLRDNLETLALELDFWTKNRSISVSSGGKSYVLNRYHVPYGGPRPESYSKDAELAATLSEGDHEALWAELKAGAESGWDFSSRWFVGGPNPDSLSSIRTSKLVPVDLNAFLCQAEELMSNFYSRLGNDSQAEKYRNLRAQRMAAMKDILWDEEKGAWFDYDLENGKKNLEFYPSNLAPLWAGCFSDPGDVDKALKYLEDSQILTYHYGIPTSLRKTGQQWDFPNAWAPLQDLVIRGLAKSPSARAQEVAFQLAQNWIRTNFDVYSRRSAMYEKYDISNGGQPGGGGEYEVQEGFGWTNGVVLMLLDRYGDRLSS

structure.smiles	target.or.test.system	output.unit	IC50
OC[C@H]1O[C@H](O[C@H]2O[C@H](CO)[C@@H](O)[C@H](O)[C@H]2O)[C@@H](O)[C@@H](O)[C@@H]1O	porcine trehalase (Sus scrofa, UniProt I3LIR5)	mM	1.13
